The origin of these recorded values is patent US20220081422A1.

Assay read-out pIC50; system under study: human DHODH (Homo sapiens).
Sequence (Q02127 whole entry): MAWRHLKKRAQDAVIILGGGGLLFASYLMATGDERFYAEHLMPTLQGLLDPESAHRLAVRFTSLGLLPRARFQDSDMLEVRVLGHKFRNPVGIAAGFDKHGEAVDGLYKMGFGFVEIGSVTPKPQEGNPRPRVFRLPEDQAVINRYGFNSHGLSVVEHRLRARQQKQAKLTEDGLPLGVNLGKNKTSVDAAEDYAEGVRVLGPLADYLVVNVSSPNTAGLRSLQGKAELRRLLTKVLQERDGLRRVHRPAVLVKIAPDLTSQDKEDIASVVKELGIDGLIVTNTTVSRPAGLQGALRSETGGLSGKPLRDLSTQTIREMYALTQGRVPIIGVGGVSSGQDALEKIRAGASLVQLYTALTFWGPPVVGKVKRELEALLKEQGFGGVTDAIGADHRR
To interpret pIC50, take it as minus log10 of a concentration measured in moles per litre.

Examples with answers:
CC[C@@H](C)[C@H]1CN(c2c(F)cccc2Cl)C(=O)c2cc(F)c(-n3nc(CO)n(CC)c3=O)cc21 (relative stereo)    8.30
C=C(C)C1CN(c2ccccc2C)C(=O)c2cc(F)c(-n3nc(CO)n(CC)c3=O)cc21 (single isomer, unassigned)    8.40
CCn1c(CO)nn(-c2nc3c(cc2F)C(=O)N(c2c(F)cccc2Cl)CN3C(C)C)c1=O    8.85
CCn1c(CO)nn(-c2cc3c(cc2F)c(=O)n(-c2c(F)cccc2Cl)c(=O)n3C(C)C)c1=O    6.96
CC[C@H](C)[C@H]1CN(c2c(F)cccc2Cl)C(=O)c2cc(F)c(-n3nc(CO)n(CC)c3=O)cc21 (relative stereo)    8.40

Recorded pIC50 (molecule `CCn1c(CO)nn(-c2cc3c(cc2F)C(=O)N(c2c(F)cncc2Cl)CN3C(C)C)c1=O` ): 7.70

Recorded pIC50 (molecule `CCn1c(CO)nn(-c2nc3c(cc2F)C(=O)N(c2c(F)cccc2Cl)CN3[C@@H](C)C2OCCCO2)c1=O` ): 8.52

Recorded pIC50 (molecule `CCn1c(CO)nn(-c2cc3c(cc2F)C(=O)N(c2nc(OC)ccc2Cl)CN3C(C)C)c1=O` ): 8.52

* * *

biological target: human DHODH (Homo sapiens)
endpoint: pIC50
To interpret pIC50, take it as minus log10 of a concentration measured in moles per litre.

Examples with answers:
C=C(C)C1CN(c2cc(C)ccc2F)C(=O)c2cc(F)c(-n3nc(CO)n(CC)c3=O)cc21 (single isomer, unassigned)    7.40
CCn1c(CO)nn(-c2cc3c(cc2F)C(=O)N(c2c(F)cccc2Cl)C(C)N3C(C)C)c1=O (stereo not drawn)    7.46
C=C(C)[C@@H]1CN(c2ccccc2Cl)C(=O)c2cc(F)c(-n3nc(CO)n(CC)c3=O)cc21 (stereo in doubt)    9.05

Recorded pIC50 (compound `CCn1c(CO)nn(-c2nc3c(cc2F)C(=O)N(c2c(F)cccc2Cl)CN3C2CCOCC2)c1=O` ): 7.24

Recorded pIC50 (compound C=C(C1CN(c2c(F)cccc2Cl)C(=O)c2ccc(-n3nc(CO)n(CC)c3=O)cc21)C(F)(F)F (racemic) ): 8.10

* * *

tested on: MOLM-13 cells; assay: MOLM-13 cellular assay (CellTiter-Glo cell viability); format: cell-based; settings: Homo sapiens, MOLM-13, 72 h, 72 hours exposure, cell viability by CellTiter-Glo
endpoint: pIC50
To interpret pIC50, take it as minus log10 of a concentration measured in moles per litre.

CCn1c(CO)nn(-c2nc3c(cc2F)C(=O)N(c2c(F)cccc2Cl)CN3C(C)C)c1=O    8.92

# CCn1c(CO)nn(-c2ccc3c(c2)C(c2ccccc2)CN(c2cccc(F)c2)C3=O)c1=O (racemic) with MOLM-13 cells: pIC50 is 6.12

# C=C(C1CN(c2c(F)cccc2Cl)C(=O)c2ccc(-n3nc(CO)n(CC)c3=O)cc21)C(F)(F)F (racemic) with MOLM-13 cells: pIC50 is 7.91

# CCC(C)C1CN(c2c(F)cccc2Cl)C(=O)c2cc(F)c(-n3nc(CO)n(CC)c3=O)cc21 (single isomer, unassigned) with MOLM-13 cells: pIC50 is 7.84
